target: Cytochrome P450 1A2 (Homo sapiens) (UniProt P05177); experiment: p450-cyp1a2 (AID 410); details: recombinant CYP1A2, luciferin-ME demethylation, luminescence; series mostly up to 57 µM
Sequence (P05177 whole entry, looked up): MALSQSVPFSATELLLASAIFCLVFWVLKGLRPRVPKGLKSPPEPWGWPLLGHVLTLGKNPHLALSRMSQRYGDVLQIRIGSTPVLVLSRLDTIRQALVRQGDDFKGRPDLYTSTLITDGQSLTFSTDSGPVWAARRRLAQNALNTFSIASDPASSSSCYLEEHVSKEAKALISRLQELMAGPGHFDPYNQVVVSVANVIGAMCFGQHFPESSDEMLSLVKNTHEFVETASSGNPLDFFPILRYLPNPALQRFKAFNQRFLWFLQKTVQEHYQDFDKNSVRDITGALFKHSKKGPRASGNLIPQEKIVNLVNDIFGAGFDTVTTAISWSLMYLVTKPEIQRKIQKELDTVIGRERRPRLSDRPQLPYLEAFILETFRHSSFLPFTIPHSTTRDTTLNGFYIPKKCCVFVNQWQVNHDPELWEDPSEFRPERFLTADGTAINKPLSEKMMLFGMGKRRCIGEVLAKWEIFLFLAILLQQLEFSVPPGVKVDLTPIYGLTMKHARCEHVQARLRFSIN
Results filed as inconclusive are left out. Activity calls are given as the source filed them. Calls come from the whole dose curve. Residues, ends and D or L forms follow the SMILES beside them. *: point of attachment. Cbz = O=C(OCc1ccccc1)*
Labels: 1 for active, -1 for inactive

INSERT INTO assay_data (molecule, assigned_category) VALUES
  ('Nc1ccc(N2C(=O)c3ccccc3C2=O)c(Cl)c1', -1),
  ('O=C(O)C1=CCCNC1', -1),
  ('Fc1ccc(CN(C2=NCCN2)c2c(Cl)cccc2Cl)cc1', -1),
  ('O=C(c1ccc2c(c1)OCCO2)N1CCCCC1', 1),
  ('O=c1[nH]ccc2c(O)cccc12', 1),
  ('CCN(CC)CCOC(=O)c1cc(Cl)c(N)cc1OC', 1),
  ('O=C(O)Cc1ccc(O)c(O)c1', -1),
  ('O=c1oc(Cl)c(Cl)c2ccccc12', 1),
  ('O=c1[nH]c(=O)c2nc3ccccc3nc2[nH]1', 1),
  ('COc1cc2c(CCNC(C)=O)c[nH]c2cc1O', 1),
  ('Cn1c(=O)c2[nH]c(-c3ccc(S(=O)(=O)O)cc3)nc2n(C)c1=O', -1),
  ('CC(C)[C@H](NC(=O)OCc1ccccc1)C(=O)N[C@H](C=O)Cc1ccccc1 (Cbz-Val-Phe-aldehyde)', -1),
  ('[Li+]', -1);

----------
test: qHTS Assay for Identifying Gametocytocidal Compounds (AID 743244);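 note: % is set by controls: 0 for no effect and ±100 for the full control effect; actives lower the fluorescent signal which means gametocytes are killed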; conditions: P. falciparum 3D7 stage III-V gametocytes, alamarBlue, 72 h; active compounds read low
Records with an inconclusive call do not appear. Residues, ends and D or L forms follow the SMILES beside them. *: point of attachment. Cbz = O=C(OCc1ccccc1)*
readout.name: max response (%)

INSERT INTO measurements (molecule, unit_info, recorded_measurement) VALUES
  ('CCCn1c(=O)c(C)cn2nc(N)nc12', '%', -2.34),
  ('CC(=O)O[C@H]1Cc2ccccc2N(C(N)=O)c2ccccc21', '%', 18.2),
  ('Nc1ccc(N2C(=O)c3ccccc3C2=O)c(Cl)c1', '%', 6.35),
  ('C[N+](C)(C)CC=O', '%', 21.1),
  ('CC(C)[C@H](NC(=O)OCc1ccccc1)C(=O)N[C@H](C=O)Cc1ccccc1 (Cbz-Val-Phe-aldehyde)', '%', 7.9),
  ('NC(=Nc1ccccc1)NC(=O)c1nc(Cl)c(N)nc1N', '%', 12.9),
  ('O=c1[nH]c2cc(Cl)ccc2c(O)c1-c1ccc(Oc2ccccc2)cc1', '%', 17.9),
  ('Cc1cc2c(cc1Cl)N(C(=O)Nc1ccnc3ccccc13)CC2', '%', 6.93),
  ('c1ccc(C(NCc2cccnc2)(c2ccccc2)c2ccccc2)cc1', '%', 16.7),
  ('Cc1nc2n(c(=O)c1CCN1CCC(c3noc4cc(F)ccc34)CC1)CCCC2O (stereo unspecified)', '%', 7.08),
  ('O=C(O)c1cccnc1C(=O)O', '%', 4.44),
  ('CC(=O)SC1CC2=CC(=O)CC[C@]2(C)C2CC[C@@]3(C)C(CC[C@@]34CCC(=O)O4)C12 (stereo partly specified)', '%', 7.64),
  ('N[C@@H](Cc1ccc(F)cc1)C(=O)O', '%', 19.5),
  ('Nc1ccc(CCNc2ncnc3c2ncn3C2OC(CO)C(O)C2O)cc1 (stereo unspecified)', '%', 12.3),
  ('O=C(O)C1CCNCC1', '%', 10.6),
  ('CCN1C(=O)C=CC1=O', '%', 14.2),
  ('Fc1ccc(CN(C2=NCCN2)c2c(Cl)cccc2Cl)cc1', '%', -2.54),
  ('CNCCNS(=O)(=O)c1cccc2cnccc12', '%', 18.9),
  ('CN(C)C(=O)/N=N/C(=O)N(C)C', '%', -1.96),
  ('O=c1oc(Cl)c(Cl)c2ccccc12', '%', 31),
  ('CCN(CC)CCOC(=O)c1cc(Cl)c(N)cc1OC', '%', 40.4),
  ('Cc1ccc2c(c1)C(N1CCN(C)CC1)=Nc1cccnc1N2', '%', 23),
  ('Nc1ncnc2c1nc(Br)n2C1OC2COP(=O)(O)O[C@@H]2C1O (stereo partly specified)', '%', 31.4),
  ('CCCCCCCCCCCCCCSCC(=O)O', '%', 30.8),
  ('CC(N)(Cc1ccc(O)c(O)c1)C(=O)O (stereo unspecified)', '%', 8.06),
  ('Oc1cc2c(cc1O)C(c1ccccc1)CNCC2 (stereo unspecified)', '%', 20.1);

----------
tested on: CP192; assay: qHTS profiling for inhibitors of Plasmodium falciparum proliferation (AID 504749); note: nearly all actives have a fitted effect of over 60% in size; details: P. falciparum in erythrocytes, SYBR Green DNA, 72 h; series mostly up to 28.7 µM
Records with an inconclusive call do not appear. Calls of active or inactive are those of the source. Calls come from the whole dose curve; as a rule, active = well fitted inhibition curve with a large enough effect; inconclusive = small, poorly fitted or top-dose-only effect; inactive = flat fitted curve, though single readings scatter.
Labels: YES for active, NO for inactive

INSERT INTO measurements (molecule, assigned_category) VALUES
  ('CC(O)C(O)[C@H]1CNc2nc(N)[nH]c(=O)c2N1 (some centres undefined)', 'NO'),
  ('c1ccc(C2CN3CCSC3=N2)cc1 (centres undefined)', 'YES'),
  ('CCCCCCCCCCCCCCC[C@H](O)[C@H](N)CO', 'NO'),
  ('CC(C)NC[C@H](O)COc1ccc(CC(N)=O)cc1', 'NO');

----------
test: Primary qHTS for inhibitors of La Crosse Virus (LACV) - induced cell death in SH-SY5Y cells (AID 1508616); settings: SH-SY5Y LACV cytopathicity rescue, ATP luminescence, 6 d; series mostly up to 9.63 µM;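 note: top concentration of the series differs between compounds; 0% = infected DMSO wells and 100% = uninfected DMSO wells; higher means more rescue of cells from virus-induced death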
Inconclusive results are not listed. Active and inactive are the calls of the source. The call rests on the fitted dose curve; in most records, active means well fitted inhibition curve with a large enough effect; inconclusive means small, poorly fitted or top-dose-only effect; inactive means no such curve, though single readings can be large or run the other way.
readout.name: outcome

INSERT INTO results (compound, readout_name, recorded_measurement) VALUES
  ('O=c1ccn([C@@H]2O[C@H](COP(=O)(O)OP(=O)(O)O)[C@@H](O)[C@H]2O)c(=O)[nH]1', 'outcome', 'inactive'),
  ('CCCCOC(=O)NS(=O)(=O)c1sc(CC(C)C)cc1-c1ccc(Cn2c(CC)nc3c(C)cc(C)nc32)cc1', 'outcome', 'inactive'),
  ('NC(C(=O)N[C@@H]1C(=O)N2C(C(=O)O)=C(Cl)CS[C@H]12)c1ccccc1 (stereo not given in full)', 'outcome', 'inactive'),
  ('NCCC1CCCC(CCN)N1 (stereo not given)', 'outcome', 'inactive'),
  ('COc1cc(/C=C(\C#N)C(=O)Nc2nnc(C(F)(F)F)s2)ccc1OCc1ccc(C(F)(F)F)cc1C(F)(F)F', 'outcome', 'inactive'),
  ('Cc1cccc(C(=O)NCN2CCN(c3ccccc3C#N)CC2)c1', 'outcome', 'inactive'),
  ('Nc1ccc(-c2ccc3ccccc3n2)cc1', 'outcome', 'inactive'),
  ('COc1ccccc1N1CCN(CCN(C(=O)c2ccc(F)cc2)c2ccccn2)CC1', 'outcome', 'inactive'),
  ('NCCCNCCCCNCCCN', 'outcome', 'inactive'),
  ('COc1cc(/C=C(\C#N)C(=O)c2ccc(O)c(O)c2)cc(I)c1O', 'outcome', 'inactive');

----------
This listing pairs molecules with measured activity change, negative = inhibition.
test: qHTS Assay for Lipid Storage Modulators (AID 1519); settings: Drosophila S3 cells, BODIPY lipid droplet/cell ratio, laser cytometry; at 57.5 µM (top of the series); cells loaded with oleic acid; note: % is set by controls: 0 for no effect and ±100 for the full control effect
Inconclusive results are not listed.
readout.name: activity change, negative = inhibition (%)

INSERT INTO assay_data (molecule, recorded_measurement) VALUES
  ('NOCC(=O)O', 2.14),
  ('NC(N)=[N+]1CCc2ccccc2C1', 1.3),
  ('C=CCN1CCc2cc(O)c(O)cc2C(c2ccccc2)C1 (stereo unspecified)', 0.997),
  ('CN(C)CCC(c1ccc(Br)cc1)c1ccccn1 (stereo unspecified)', 0.401),
  ('CCCn1c(=O)c2c(ncn2C)n(CCC)c1=O', -2.98),
  ('O=C(O)[C@H]1NCCC[C@H]1C(=O)O', -1.57),
  ('CCCCCC(O)CCCC(=O)O (stereo unspecified)', 0.833),
  ('NC(C(=O)N[C@@H]1C(=O)N2C(C(=O)O)=C(Cl)CS[C@H]12)c1ccccc1 (stereo partly specified)', -2.36),
  ('CCCCOc1cc(CC2CNC(=O)N2)ccc1OC (stereo unspecified)', 7.3),
  ('O=C(O)Cc1ccc(O)c(O)c1', -0.0553),
  ('Cn1c(=O)c2c(nc(/C=C/c3cccc(Cl)c3)n2C)n(C)c1=O', -4.15),
  ('O=c1onc2cnc3ccccc3n12', 0.198),
  ('COc1ccccc1N1CCN(CCCNc2c(C)c(=O)n(C)c(=O)n2C)CC1', -0.317),
  ('NC(=O)CNCCC(c1ccccc1)c1ccccc1', 0.71),
  ('C[C@@H](NCCc1ccc(O)cc1)[C@@H](O)c1ccc(O)cc1', 1.71),
  ('O=c1ccn([C@@H]2O[C@H](COP(=O)(O)OP(=O)(O)O)[C@@H](O)[C@H]2O)c(=O)[nH]1', 1.87),
  ('CC(=O)N[C@@H](Cc1c[nH]c2ccccc12)C(=O)OCc1cc(C(F)(F)F)cc(C(F)(F)F)c1', -1.99),
  ('CC1=C(/C=C/C(C)=C/C=C/C(C)=C\C(=O)O)C(C)(C)CCC1', 6.72),
  ('Cc1cccc(C(=O)NCN2CCN(c3ccccc3C#N)CC2)c1', 0.112),
  ('COc1ccc2c(c1)c(CC(=O)O)c(C)n2Cc1ccc(Cl)cc1', -1.87),
  ('CN1CCc2cc(Cl)c(O)cc2[C@@H](c2ccccc2)C1', 0.829),
  ('CC(C)(CO)Cc1cc(C(C)(C)C)c(O)c(C(C)(C)C)c1', -0.753),
  ('Cc1nc(N=Nc2ccc(C(=O)O)cc2)c(COP(=O)(O)O)c(C=O)c1O', -0.137),
  ('O=C(O)/C(=C/c1c(C(=O)O)[nH]c2cc(Cl)cc(Cl)c12)c1ccccc1', 0.679),
  ('Cc1cccc(C)c1OCC(N)C(C)C (stereo unspecified)', 0.702),
  ('COc1cc(/C=C(\C#N)C(=O)c2ccc(O)c(O)c2)cc(I)c1O', -0.482),
  ('CN[C@H](CC(=O)O)C(=O)O', 3.39),
  ('C#CCn1c(=O)c2c(ncn2C)n(C)c1=O', 2.4),
  ('Nc1ncnc2c1ncn2C1CCCO1 (stereo unspecified)', -1.26),
  ('CC(N)=O', -0.907),
  ('CC[N+](CC)(CC)CC(=O)Nc1c(C)cccc1C', 4.67),
  ('O=c1cc(-c2ccccc2)[nH]c2nc(Cl)ccc12', 0.241),
  ('COc1cc(CNC(=O)CCCCCCC(C)C)ccc1O', 0.247),
  ('CCC(=O)N1CCN(C(=O)c2ccccc2)CC1', 0.685),
  ('N=C(N)c1ccccc1', 0.991),
  ('N[C@@H](CCC(=O)N[C@H](CSN=O)C(=O)NCC(=O)O)C(=O)O', 0.446);
